- target.under.test: Tissue-type plasminogen activator (Homo sapiens, UniProt P00750)
- Sequence (P00750 whole entry): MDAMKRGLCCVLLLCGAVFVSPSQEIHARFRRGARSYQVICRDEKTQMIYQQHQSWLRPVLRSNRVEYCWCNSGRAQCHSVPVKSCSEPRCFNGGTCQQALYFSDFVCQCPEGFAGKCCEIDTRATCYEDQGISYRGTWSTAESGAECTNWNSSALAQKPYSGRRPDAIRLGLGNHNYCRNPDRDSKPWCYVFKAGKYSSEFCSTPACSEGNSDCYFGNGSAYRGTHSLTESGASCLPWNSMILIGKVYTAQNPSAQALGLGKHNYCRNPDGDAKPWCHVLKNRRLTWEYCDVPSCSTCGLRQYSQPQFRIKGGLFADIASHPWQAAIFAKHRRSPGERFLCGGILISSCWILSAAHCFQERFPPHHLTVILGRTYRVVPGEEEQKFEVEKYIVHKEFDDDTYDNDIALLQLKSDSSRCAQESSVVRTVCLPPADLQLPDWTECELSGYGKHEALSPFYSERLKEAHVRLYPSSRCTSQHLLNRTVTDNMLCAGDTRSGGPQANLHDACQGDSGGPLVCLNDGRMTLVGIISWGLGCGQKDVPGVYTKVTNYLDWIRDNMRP
Measured pKi by item
Please note pKi is a logarithmic value: minus log10 of concentration in mol/L. Answer with that number alone.

Answered examples (5):
O=C1Cn2c(Cl)cnc(c2=O)N[C@@H](Cc2ccccc2)CNCCCNCCc2ccccc2CN1 6.19
O=C1COc2ccc(Cl)cc2CNC(=O)[C@@H]2CCCN2C(=O)[C@@H](C2CCCCC2)NC(=O)CCCCN1 4.32
O=C1COc2ccc(Cl)cc2CNC(=O)[C@@H]2CCCN2C(=O)[C@@H](C2CCCCC2)NC(=O)CCCN1 5.37
CN1CCCCCOc2ccc(Cl)cc2CNC(=O)Cn2c(Cl)cnc(c2=O)N[C@@H](Cc2ccccc2)C1 8.52
O=C1Cn2c(Cl)cnc(c2=O)N[C@@H](Cc2ccccc2)CNCCOCCOc2ccc(Cl)cc2CN1 6.82

Provide pKi, system Tissue-type plasminogen activator (Homo sapiens, UniProt P00750), entry `O=C1Cn2c(Cl)cnc(c2=O)N[C@@H](Cc2ccccc2)CNCCCCCOc2ccc(Cl)cc2CN1` 8.22

Name the recorded pKi of `O=C1Cn2c(Cl)cnc(c2=O)N[C@@H](Cc2ccccc2)CNC(=O)OC/C=C\COc2ccc(Cl)cc2CN1` , assay system Tissue-type plasminogen activator (Homo sapiens, UniProt P00750). 8.22

GET pKi where system = Tissue-type plasminogen activator (Homo sapiens, UniProt P00750) and item = `O=C1Cn2c(Cl)cnc(c2=O)N[C@@H](Cc2ccccc2)CNCCOCCOc2ccccc2CN1` 5.49

Write down the reported pKi (system: Tissue-type plasminogen activator (Homo sapiens, UniProt P00750)) of `O=C1Cn2c(Cl)cnc(c2=O)N[C@@H](Cc2ccccc2)CNCCCCOc2ccc(Cl)cc2CN1` 7.70

Please look at `O=C1Cn2c(Cl)cnc(c2=O)N[C@@H](Cc2ccccc2)CNCCCCCOc2ccccc2CN1` and tell me its recorded pKi on Tissue-type plasminogen activator (Homo sapiens, UniProt P00750). 6.44
